FYI, the data here is from patent US20220195023A1.

- tested system: (NPNA)3 (Plasmodium falciparum)
- method notes: SPR, antibody on chip
pKd: −log10 of the molar value.
observed property: pKd

[[record]]
binder = "AB-007042 (antibody, V domains shown) VH: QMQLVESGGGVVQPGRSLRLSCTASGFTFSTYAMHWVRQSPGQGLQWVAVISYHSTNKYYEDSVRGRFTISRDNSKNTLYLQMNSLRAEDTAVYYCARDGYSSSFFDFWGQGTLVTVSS VL: DIQMTQSPSTLSASVGDRVAITCRASQDISRWLAWYQQQPGKAPKLLMSGASVLESGVPSRFSGSGSGTEFTLTISSLQPDDFATYYCQHYNSYFVTFGQGTKVEIK"
experimental_value = 8.15

[[record]]
binder = "AB-007070 (antibody, V domains shown) VH: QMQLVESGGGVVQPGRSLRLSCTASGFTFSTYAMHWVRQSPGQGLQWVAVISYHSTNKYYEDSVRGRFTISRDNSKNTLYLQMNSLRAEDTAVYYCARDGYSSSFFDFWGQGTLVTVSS VL: DIQMTQSPSTLSASVGDRVAITCRASQSISRWLAWYQQQPGKAPKLLMSAASVLESGVPSRFSGSGSGTEFTLTISSLQPDDFATYYCQHYNSYFVTFGQGTKVEIK"
experimental_value = 7.10

